Test name: Quantitative high throughput screen for delayed death inhibitors of the malarial parasite plastid, 48 hour incubation (AID 488752); further: nearly all actives have a fitted effect of over 65% in size
Condition summary: Plasmodium falciparum growth; series mostly up to 28.7 µM
Results filed as inconclusive are left out. Activity calls are given as the source filed them. The call rests on the fitted dose curve; in most records, active means well fitted inhibition curve with a large enough effect; inconclusive means small, poorly fitted or top-dose-only effect, or effect the other way; inactive means flat fitted curve, though single readings scatter.
Please state which outcome applies, choosing from active, inactive

# example entries with known answers
>>> qualitative_label("C[N+](C)(C)CC#CCN1CCCC1=O")
"inactive"
>>> qualitative_label("N#CC(C#N)=Cc1cc(O)c(O)c(O)c1")
"inactive"
>>> qualitative_label("O=P(O)(O)C(Cl)(Cl)P(=O)(O)O")
"inactive"
>>> qualitative_label("O=C1CC[C@@]2(O)C3Cc4ccc(O)c5c4C2(CCN3CC2CC2)[C@H]1O5 (some centres undefined)")
"inactive"

Please find the next compound below.
Prompt line: Name the outcome recorded for C[C@@H]1O[C@H](C[N+](C)(C)C)CS1 in the assay.
Response line: inactive

----------
Test system: Phosphoglycerate kinase, glycosomal (Trypanosoma brucei brucei) (UniProt P07378)
Sequence (P07378 whole entry, looked up): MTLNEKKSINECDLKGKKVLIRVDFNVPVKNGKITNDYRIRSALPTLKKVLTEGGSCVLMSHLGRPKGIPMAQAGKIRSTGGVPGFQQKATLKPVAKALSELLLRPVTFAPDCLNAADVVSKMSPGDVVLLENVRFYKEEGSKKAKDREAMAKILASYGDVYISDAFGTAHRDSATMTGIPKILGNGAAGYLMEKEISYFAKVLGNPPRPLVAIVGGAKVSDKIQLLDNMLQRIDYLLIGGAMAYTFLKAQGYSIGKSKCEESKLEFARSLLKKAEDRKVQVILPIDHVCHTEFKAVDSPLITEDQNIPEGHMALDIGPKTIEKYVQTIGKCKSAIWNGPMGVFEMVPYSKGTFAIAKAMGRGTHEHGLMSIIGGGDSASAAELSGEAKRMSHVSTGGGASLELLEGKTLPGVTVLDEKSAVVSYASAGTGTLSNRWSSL
Test name: qHTS Validation Assay to Find Inhibitors of Phosphoglycerate Kinase (AID 504547)
Condition summary: enzymatic PGK inhibition, coupled luminescence read-out; series mostly up to 57.5 µM
The source made the active and inactive calls. Calls come from the whole dose curve; as a rule, active = well fitted inhibition curve with a large enough effect; inconclusive = small, poorly fitted or top-dose-only effect; inactive = flat fitted curve, though single readings scatter.
Valid outcomes are listed here; reply with one: active, inactive

Below, 2 compounds whose answers are already recorded.
>>> qualitative_label("NCC(O)c1cc(O)c(O)cc1F (stereo unspecified)")
"active"
>>> qualitative_label("CC(N)Cc1c[nH]c2ccc(O)cc12 (stereo unspecified)")
"inactive"

Prompt line: In this assay, the call recorded for NC(N)=Nc1ccc2[nH]c3c(c2c1)C[C@@]1(O)[C@H]2Cc4ccc(O)c5c4[C@@]1(CCN2CC1CC1)[C@H]3O5 was what?
Response line: inactive

Prompt line: Could you check what this test reported for CCNC(=O)[C@H]1O[C@@H](n2cnc3c(N)ncnc32)[C@H](O)[C@@H]1O ?
Response line: inactive

Prompt line: State the result this test recorded for COc1cc(CC(C)N)c(OC)cc1I (stereo unspecified) .
Response line: inactive

Prompt line: Dear all, I need the recorded test outcome for CC(C)NP(=O)(NC(C)C)OP(=O)(NC(C)C)NC(C)C , thank you.
Response line: inactive

Prompt line: Per the assay record, what outcome was assigned to N[C@@H](Cn1oc(=O)[nH]c1=O)C(=O)O ?
Response line: inactive

Prompt line: What was the test verdict on CNc1ccc2oc(C[C@H]3O[C@@]4(CC[C@H]3C)O[C@H]([C@H](C)C(=O)c3ccc[nH]3)[C@H](C)C[C@H]4C)nc2c1C(=O)O ?
Response line: inactive

Prompt line: So what was the verdict on Cc1cc([C@@H]2CCCN2C)on1 in this test?
Response line: inactive

Prompt line: Tell me the recorded outcome of this test for CN1CCc2cc(O)cc3c2[C@H]1Cc1ccc(O)c(O)c1-3 .
Response line: inactive

Prompt line: Please let me know the test result on file for COc1ccc2c(c1)/C(=C/c1cnc[nH]1)C(=O)N2 .
Response line: inactive

----------
Test name: MultiTox-Fluor Cytotoxicity Assay - LYMP1-003 - Live Cells (AID 962);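 further: cells exposed to compound for 16 hours at 37 °C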
Condition summary: LYMP1-003 lymphoblastoid cells, MultiTox-Fluor live-cell protease fluorescence; series mostly up to 92.2 µM
Active and inactive are the calls of the source. Calls follow the shape of the dose curve; as a rule, active = well fitted cell-killing curve with a large enough effect; inconclusive = small, poorly fitted or top-dose-only effect; inactive = flat fitted curve, though single readings scatter.
Pick one and only one: true (active), false (inactive)

>>> qualitative_label("C=CCN=C=S")
"false"
>>> qualitative_label("O=[N+]([O-])c1ccc(F)c([N+](=O)[O-])c1")
"false"
>>> qualitative_label("CC(C)(C)c1cc(O)ccc1O")
"false"
>>> qualitative_label("[O]=[Cr](=[O])([OH])[O][Cr](=[O])(=[O])[OH]")
"false"
>>> qualitative_label("CCCCCl")
"false"
>>> qualitative_label("CC(C)Nc1ccc(Nc2ccccc2)cc1")
"true"
>>> qualitative_label("CC(C)CCON=O")
"false"
>>> qualitative_label("[O]=[Cd]")
"false"

Prompt line: How was O=C(O)C(Cl)(Cl)Cl classified in this test?
Response line: false

Prompt line: Which outcome did this test record for the compound C[C@]12CCC(=O)C[C@@H]1CC[C@@H]1[C@@H]2CC[C@]2(C)[C@@H](O)CC[C@@H]12 ?
Response line: false

Prompt line: What call does the record list for COC1=CC(=O)O[C@@H](/C=C/c2ccccc2)C1 ?
Response line: false

Prompt line: // outcome(item) with item = CCCCCCCCOC(=O)c1ccccc1C(=O)OCCCCCCCC
Response line: false

Prompt line: What call does the record list for O=Cc1ccco1 ?
Response line: false

Prompt line: Given Clc1ccccc1Cl , state the outcome it received in this test.
Response line: false

Prompt line: For COc1ccc2c(c1OC)C(=O)OC2C1c2cc3c(cc2CCN1C)OCO3 (configuration not stated) , what call appears in the results of this test?
Response line: false

Prompt line: Give the logged outcome of this assay for the following compound: O=CC=O
Response line: false

Prompt line: Hi, sorry to bother you, what did the test record for [Cl-].[Cl-].[Hg+2] ?
Response line: true

Prompt line: I would be grateful if you could indicate the recorded call for Oc1cc(Cl)c(Cl)cc1Cl .
Response line: false

Prompt line: What did the test return for ClC(Cl)(Cl)Cl ?
Response line: false

Prompt line: For ClC=C(Cl)Cl , what call appears in the results of this test?
Response line: false

Prompt line: # outcome recorded in this test, key = NNC(N)=O
Response line: false

Prompt line: Tell me the recorded outcome of this test for CCOC(=O)c1ccccc1C(=O)OCC .
Response line: false

----------
Test name: P-glycoprotein substrates identified in KB-8-5-11 adenocarcinoma cell line, qHTS therapeutic library screen (AID 1346987); further: nearly all actives have a fitted effect of over 65% in size
Condition summary: KB-8-5-11 (P-gp overexpressing) viability, CellTiter-Glo, 72 h; series mostly up to 44.5 µM
Records with an inconclusive call do not appear. Active and inactive are the calls of the source. Calls come from the whole dose curve; as a rule, active = well fitted inhibition curve with a large enough effect; inconclusive = small, poorly fitted or top-dose-only effect; inactive = flat fitted curve, though single readings scatter.
Pick from Y for active, N for inactive when you respond.

Below, 4 compounds whose answers are already recorded.
>>> qualitative_label("N#C[C@@H](O[C@@H]1O[C@H](CO[C@@H]2O[C@H](CO)[C@@H](O)[C@H](O)[C@H]2O)[C@@H](O)[C@H](O)[C@H]1O)c1ccccc1")
"N"
>>> qualitative_label("CCC(C)(OC(C)=O)C(=O)O[C@H]1[C@H](OC(C)=O)C[C@@H]2[C@@](C)([C@@H]3C[C@H]4C=CO[C@H]4O3)[C@H](C)C[C@H](OC(C)=O)[C@@]2(COC(C)=O)[C@@]12CO2 (stereo partly specified)")
"N"
>>> qualitative_label("C[C@H]1CC[C@]2(NC1)O[C@H]1C[C@H]3[C@@H]4CC[C@H]5C[C@@H](O[C@@H]6O[C@H](CO)[C@H](O[C@@H]7O[C@H](CO)[C@@H](O)[C@H](O[C@@H]8OC[C@@H](O)[C@H](O)[C@H]8O)[C@H]7O[C@@H]7O[C@H](CO)[C@@H](O)[C@H](O)[C@H]7O)[C@H](O)[C@H]6O)CC[C@]5(C)[C@H]4CC[C@]3(C)[C@H]1[C@@H]2C")
"Y"
>>> qualitative_label("CCN1C[C@]2(COC)[C@H](O)C[C@H](OC)[C@@]34[C@@H]5C[C@@]6(O)[C@H](OC(=O)c7ccccc7)[C@@H]5[C@@](OC(C)=O)([C@@H]([C@H](OC)[C@H]23)[C@@H]14)[C@@H](O)[C@@H]6OC")
"N"

# ---- query compound ----
Prompt line: Recorded test outcome, item F/C(COc1ccc2c(c1)[nH]c1ccccc12)=C1/CN2CCC1CC2
Response line: N

----------
Test system: PC26
Test name: qHTS profiling for inhibitors of Plasmodium falciparum proliferation (AID 504749); further: nearly all actives have a fitted effect of over 60% in size
Condition summary: P. falciparum in erythrocytes, SYBR Green DNA, 72 h; series mostly up to 28.7 µM
Records with an inconclusive call do not appear. Activity calls are given as the source filed them. Calls follow the shape of the dose curve; as a rule, active = well fitted inhibition curve with a large enough effect; inconclusive = small, poorly fitted or top-dose-only effect; inactive = flat fitted curve, though single readings scatter.
Write down the outcome that applies. Available outcomes: active, inactive

Example cases with answers are listed next.
>>> qualitative_label("COc1ccc(OC)c(C(O)C(C)N)c1 (centres undefined)")
"inactive"
>>> qualitative_label("CCC(C)(S(=O)(=O)CC)S(=O)(=O)CC")
"inactive"
>>> qualitative_label("O=[N+]([O-])C(Br)(CO)CO")
"inactive"
>>> qualitative_label("C[N+]1(C)C2CCC1CC(OC(=O)c1c[nH]c3ccccc13)C2 (centres undefined)")
"inactive"
>>> qualitative_label("CC(C)CCON=O")
"inactive"

Prompt line: Would you mind telling me which call this test gave CC(Cc1ccccc1)NC=O (centres undefined) ?
Response line: inactive

Prompt line: Name the outcome recorded for CC(C)(O)C1C2OC(=O)C1C1(O)CC3OC34C(=O)OC2C14C (centres undefined) in the assay.
Response line: inactive

Prompt line: Answer briefly: the call reported for N#CN in this assay.
Response line: inactive

Prompt line: GET /call?item= O=C1CN(O)C(c2ccccc2)=c2cc(Cl)ccc2=N1 returns the recorded outcome of this test.
Response line: inactive

Prompt line: Answer briefly: the call reported for CC(=O)OO in this assay.
Response line: inactive

Prompt line: Record lookup: outcome of this test for O=C1CCO1 ?
Response line: inactive

Prompt line: Any idea what this test logged for CC[N+](C)(CC)CCOC(=O)C(O)(c1ccccc1)c1ccccc1 ?
Response line: inactive

Prompt line: Record request — test call for C[N+]1(C)CCCCC1COC(=O)C(O)(c1ccccc1)c1ccccc1 (centres undefined)
Response line: inactive

Prompt line: Give the logged outcome of this assay for the following compound: CCC1(c2ccccc2)C(=O)NC(=O)NC1=O
Response line: inactive

Prompt line: I would be grateful if you could indicate the recorded call for O=C1CN=C(c2ccccc2)c2cc(Cl)ccc2N1CC1CC1 .
Response line: inactive

Prompt line: Please share the test call associated with CN1c2ccccc2C(NCCCCCCC(=O)O)c2ccc(Cl)cc2S1(=O)=O (centres undefined) .
Response line: inactive

Prompt line: Short answer needed: outcome of this test for Oc1cccc[c]1[Hg][Cl] ?
Response line: active
